- Method description: Quantitative High-Throughput drug screen in 47 multiple myeloma cell lines against the NCATS MIPE library collection: FR4_PLB cell viability assay (AID 1918924; also: nearly all actives have a fitted effect of over 35% in size)
- Measurement context: FR4_PLB myeloma cells viability, CellTiter-Glo ATP, 48 h; series mostly up to 45.8 µM
Inconclusive results are not listed. Activity calls are given as the source filed them. Calls follow the shape of the dose curve; as a rule, active = well fitted cell-killing curve with a large enough effect; inconclusive = small, poorly fitted or top-dose-only effect, or effect the other way; inactive = no such curve, though single readings can be large or run the other way.
Classes used: Y (active), N (inactive)

- Molecule: "CCCCc1oc2ccc(NS(C)(=O)=O)cc2c1C(=O)c1ccc(OCCCN(CCCC)CCCC)cc1"
  Cat: "Y"
- Molecule: "CCC(=O)O[C@]1(C(=O)SCF)[C@H](C)C[C@H]2[C@@H]3C[C@H](F)C4=CC(=O)C=C[C@]4(C)[C@@]3(F)[C@@H](O)C[C@@]21C"
  Cat: "N"
- Molecule: "Nc1[nH]c(=O)ncc1F"
  Cat: "N"
- Molecule: "Cc1nnc(NS(=O)(=O)c2ccc(N)cc2)s1"
  Cat: "N"
- Molecule: "COc1ccccc1OCC(O)COC(N)=O (stereo not drawn)"
  Cat: "N"
- Molecule: "CN(Cc1cc(Br)cc(Br)c1N)C1CCCCC1"
  Cat: "N"
- Molecule: "CN(C)c1ccc(C(=C2C=CC(=[N+](C)C)C=C2)c2ccc(N(C)C)cc2)cc1"
  Cat: "Y"
- Molecule: "O=C(O)c1cccnc1"
  Cat: "N"
- Molecule: "CC(N)C12CC3CC(CC(C3)C1)C2 (stereo not drawn)"
  Cat: "N"
- Molecule: "C[C@@H]1C[C@H]2[C@@H]3CCC4=CC(=O)C=C[C@]4(C)[C@@]3(Cl)[C@@H](O)C[C@]2(C)[C@@]1(OC(=O)c1ccco1)C(=O)CCl"
  Cat: "Y"
- Molecule: "CN(CCOc1ccc(CC2SC(=O)NC2=O)cc1)c1ccccn1 (stereo not drawn)"
  Cat: "N"
- Molecule: "O=C(O)C1CCCN(CCC=C(c2ccccc2)c2ccccc2)C1 (stereo not drawn)"
  Cat: "N"
- Molecule: "CN1CCN(c2c(F)cc3c(=O)c(C(=O)O)cn(CCF)c3c2F)CC1"
  Cat: "N"

----------
- Method description: Quantitative High-Throughput drug screen in 47 multiple myeloma cell lines against the NCATS MIPE library collection: OPM2_DSMZ cell viability assay (AID 1919872); also: nearly all actives have a fitted effect of over 30% in size
- Measurement context: OPM2 myeloma viability, CellTiter-Glo ATP luminescence, 48 h; series mostly up to 45.8 µM
Records with an inconclusive call do not appear. Active and inactive are the calls of the source. Calls come from the whole dose curve; as a rule, active = well fitted cell-killing curve with a large enough effect; inconclusive = small, poorly fitted or top-dose-only effect, or effect the other way; inactive = no such curve, though single readings can be large or run the other way.
Classes used: active, inactive

- Smiles structure: "O=C(N[C@H](CO)[C@H](O)c1ccc([N+](=O)[O-])cc1)C(Cl)Cl"
  Cat: "inactive"
- Smiles structure: "COC(=O)Nc1nc2ccc(Sc3ccccc3)cc2[nH]1"
  Cat: "active"
- Smiles structure: "O[C@@H](CNC[C@H](O)[C@H]1CCc2cc(F)ccc2O1)[C@@H]1CCc2cc(F)ccc2O1"
  Cat: "active"
- Smiles structure: "C[C@@H]1CN(c2c(F)c(N)c3c(=O)c(C(=O)O)cn(C4CC4)c3c2F)C[C@H](C)N1"
  Cat: "inactive"
- Smiles structure: "CCn1cc(C(=O)O)c(=O)c2cc(F)c(N3CCN(C)CC3)cc21"
  Cat: "inactive"
- Smiles structure: "CC(C)(C)C(=O)OCOP(=O)(COCCn1cnc2c(N)ncnc21)OCOC(=O)C(C)(C)C"
  Cat: "active"
- Smiles structure: "COc1ccc(-c2ccc3cc(C(=O)O)ccc3c2)cc1C12CC3CC(CC(C3)C1)C2"
  Cat: "inactive"
- Smiles structure: "COC(c1ccccc1)(c1ccccc1)[C@H](Oc1nc(C)cc(C)n1)C(=O)O"
  Cat: "inactive"

----------
z-score overview
- Method description: qHTS for identification of novel therapeutic agents for treatment of microphthalmiaassociated transcription factor (MiT) renal cell carcinoma (RCC) (AID 1963991);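 also: curves scaled with 100% = DMSO viability and 0% = empty wells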
- Measurement context: TFE3-RCC viability, CellTiter-Glo, 48 h; measured here: UOK145 Z-AUC; stronger effect = lower value
Inconclusive results are not listed.

- Compound: "COc1cccc(N(C)C(=S)Oc2ccc3c(c2)CCCC3)n1"
  z-score: 1.67
- Compound: "Cc1c(-c2ccc(O)cc2)n(Cc2ccc(OCCN3CCCCCC3)cc2)c2ccc(O)cc12"
  z-score: 0.653
- Compound: "CO[C@@H]1[C@@H](OC(N)=O)[C@@H](O)[C@H](Oc2ccc3c(O)c(NC(=O)c4ccc(O)c(CC=C(C)C)c4)c(=O)oc3c2C)OC1(C)C"
  z-score: 0.567
- Compound: "CCN(CC)CC#CCOC(=O)C(O)(c1ccccc1)C1CCCCC1 (configuration not stated)"
  z-score: 0.607
- Compound: "C[C@@H](NCCCc1cccc(C(F)(F)F)c1)c1cccc2ccccc12"
  z-score: 0.348
- Compound: "CCOC(=O)c1ccc(OC(=O)CCCCCN=C(N)N)cc1"
  z-score: -0.125
- Compound: "O=C(NCC1CN(c2ccc(N3CCOCC3=O)cc2)C(=O)O1)c1ccc(Cl)s1 (configuration not stated)"
  z-score: 0.507
- Compound: "COc1ccc2c(c1)c(CC(=O)OCC(=O)O)c(C)n2C(=O)c1ccc(Cl)cc1"
  z-score: 0.507
- Compound: "CN(CCOc1ccc(CC2SC(=O)NC2=O)cc1)c1ccccn1 (configuration not stated)"
  z-score: 0.764
- Compound: "CCN(CC)CCn1c(=O)c(Cc2ccc(OC)cc2)nc2ccccc21"
  z-score: 0.628
- Compound: "NS(=O)(=O)c1cc2c(cc1Cl)NC(C(Cl)Cl)NS2(=O)=O (configuration not stated)"
  z-score: 0.519
- Compound: "N[C@@H](Cc1ccc(O)c(O)c1)C(=O)O"
  z-score: 0.282
- Compound: "CN(C)c1ccc(C(=C2C=CC(=[N+](C)C)C=C2)c2ccc(N(C)C)cc2)cc1"
  z-score: -1.8
- Compound: "COCCCOc1cc(C[C@@H](C[C@H](N)[C@@H](O)C[C@H](C(=O)NCC(C)(C)C(N)=O)C(C)C)C(C)C)ccc1OC"
  z-score: 1.4
- Compound: "Nc1nc(F)nc2c1ncn2[C@@H]1O[C@H](CO)[C@@H](O)[C@@H]1O"
  z-score: -1.61
- Compound: "NCCCC(O)(P(=O)(O)O)P(=O)(O)O"
  z-score: 0.216
- Compound: "CCn1cc(C(=O)O)c(=O)c2cc(F)c(N3CCNCC3)cc21"
  z-score: 1.26

----------
- Tested on: CP269
- Method description: qHTS profiling for inhibitors of Plasmodium falciparum proliferation (AID 504749); also: nearly all actives have a fitted effect of over 60% in size
- Measurement context: P. falciparum in erythrocytes, SYBR Green DNA, 72 h; series mostly up to 28.7 µM
Inconclusive results are not listed. The source made the active and inactive calls. The call rests on the fitted dose curve; in most records, active means well fitted inhibition curve with a large enough effect; inconclusive means small, poorly fitted or top-dose-only effect; inactive means flat fitted curve, though single readings scatter.
Classes used: Yes (active), No (inactive)

- Smiles structure: "COc1cc(NCc2ccc3nc(N)nc(N)c3c2C)cc(OC)c1OC"
  Assayed system: "CP269"
  Cat: "Yes"
- Smiles structure: "CCN(C)C(=O)Oc1cccc([C@H](C)N(C)C)c1"
  Assayed system: "CP269"
  Cat: "No"
- Smiles structure: "O=c1cc(O)c(Cl)c[nH]1"
  Assayed system: "CP269"
  Cat: "No"
- Smiles structure: "CCn1cc(C(=O)O)c(=O)c2cc(F)c(N3CCN(C)CC3)cc21"
  Assayed system: "CP269"
  Cat: "No"

----------
- Method description: qHTS of pediatric cancer cell lines to identify multiple opportunities for drug repurposing: Primary screen for SJ-GBM2 cells (AID 1347091)
- Measurement context: SJ-GBM2 viability, CellTiter-Glo luminescence, 48 h; series mostly up to 46 µM
Inconclusive results are not listed. Active and inactive are the calls of the source. Calls follow the shape of the dose curve; as a rule, active = well fitted cell-killing curve with a large enough effect; inconclusive = small, poorly fitted or top-dose-only effect; inactive = no such curve, though single readings can be large or run the other way.
Classes used: YES = active, NO = inactive

- Molecule: "CCN1CCCC1CNC(=O)c1cc(S(N)(=O)=O)ccc1OC (centres undefined)"
  Cat: "NO"
- Molecule: "COc1cnc(NS(=O)(=O)c2ccc(N)cc2)nc1"
  Cat: "NO"
- Molecule: "CO[C@@]12[C@H](COC(N)=O)C3=C(C(=O)C(C)=C(N)C3=O)N1C[C@@H]1N[C@@H]12"
  Cat: "YES"
- Molecule: "CCN[C@H]1C[C@H](C)S(=O)(=O)c2sc(S(N)(=O)=O)cc21"
  Cat: "NO"

----------
- Method description: Quantitative High-Throughput drug screen in 47 multiple myeloma cell lines against the NCATS MIPE library collection: KMS27_JCRB cell viability assay (AID 1918970); also: nearly all actives have a fitted effect of over 30% in size
- Measurement context: KMS27 myeloma cells, CellTiter-Glo ATP viability, 48 h; series mostly up to 45.8 µM
Results filed as inconclusive are left out. Calls of active or inactive are those of the source. Calls come from the whole dose curve; as a rule, active = well fitted cell-killing curve with a large enough effect; inconclusive = small, poorly fitted or top-dose-only effect, or effect the other way; inactive = no such curve, though single readings can be large or run the other way.
Classes used: active, inactive

- Molecule: "CCn1cc(C(=O)O)c(=O)c2cc(F)c(N3CCNCC3)nc21"
  Cat: "inactive"
- Molecule: "Cc1noc(NS(=O)(=O)c2ccc(N)cc2)c1C"
  Cat: "inactive"
- Molecule: "S=P(N1CC1)(N1CC1)N1CC1"
  Cat: "active"
- Molecule: "CNC1CCCN(c2c(F)cc3c(=O)c(C(=O)O)cn(C4CC4)c3c2OC)C1 (stereo not given)"
  Cat: "active"
- Molecule: "CC[C@H](NC(C)C)[C@H](O)c1ccc(O)c2[nH]c(=O)ccc12"
  Cat: "inactive"
- Molecule: "CC(C)(C)C(=O)OCOP(=O)(COCCn1cnc2c(N)ncnc21)OCOC(=O)C(C)(C)C"
  Cat: "active"
- Molecule: "OCc1ccc(-c2nn(Cc3ccccc3)c3ccccc23)o1"
  Cat: "inactive"
- Molecule: "CC(N)C12CC3CC(CC(C3)C1)C2 (stereo not given)"
  Cat: "inactive"
- Molecule: "Cc1oc(=O)oc1CN1CCN(c2cc3c(cc2F)c(=O)c(C(=O)O)c2n3C(C)S2)CC1 (stereo not given)"
  Cat: "inactive"
- Molecule: "CCN(CC)CCn1c(=O)c(Cc2ccc(OC)cc2)nc2ccccc21"
  Cat: "active"
